Where these numbers come from: PubChem BioAssay (NCATS)

Test: qHTS for Inhibitors of the Functional Ribonucleoprotein Complex (vRNP) of Lassa (LASV) Arenavirus: LASV Primary Screen - GLuc reporter signal (AID 1347082); note: nearly all actives have a fitted effect of over 60% in size
Conditions: LASV minigenome vRNP, Gaussia luciferase reporter; series mostly up to 57.5 µM
Results filed as inconclusive are left out. Active and inactive are the calls of the source. Calls come from the whole dose curve; tested in HEK293 reporter line.
Labels: active, inactive

COMPOUND: CC1=CCC(O)(C(C)C)CC1 (stereo unspecified)
GROUP: inactive
//
COMPOUND: CCCCCCCCCCC(C)=O
GROUP: inactive
//
COMPOUND: O=C1CN2Cc3c(ccc(Cl)c3Cl)N=C2N1
GROUP: inactive
//
COMPOUND: COc1cc(O)c2c(=O)c(-c3ccc(O[C@@H]4O[C@H](CO)[C@@H](O)[C@H](O)[C@H]4O)cc3)coc2c1
GROUP: inactive
//
COMPOUND: C=CC(C)(CCC=C(C)C)OC(=O)CC(C)C (stereo unspecified)
GROUP: inactive
//
COMPOUND: OCCCNc1cc(-c2ccnc(Nc3cccc(Cl)c3)n2)ccn1
GROUP: active
//
COMPOUND: CC(C)=CCc1c(-c2ccc(O)cc2O)oc2cc3c(c(O)c2c1=O)C=CC(C)(C)O3
GROUP: inactive
//
COMPOUND: CCCCCCCCC(=O)OCC
GROUP: inactive
//
COMPOUND: C[C@H]([C@@H](O)[C@@H](O)[C@@H](C)C(C)(C)C)[C@H]1CC[C@H]2C3CC[C@H]4C[C@H](OS(=O)(=O)O)[C@@H](OS(=O)(=O)O)C[C@]4(C)[C@H]3CC[C@]12C (stereo partly specified)
GROUP: inactive
//
COMPOUND: O=C(O)Cc1ccc(O)cc1
GROUP: inactive
//
COMPOUND: CSc1nc(N)c2ncn([C@@H]3O[C@H](COP(=O)(O)OP(=O)(O)OP(=O)(O)O)[C@@H](O)[C@H]3O)c2n1
GROUP: inactive
//
COMPOUND: CC(C)=CCOc1c2ccoc2c(OCC=C(C)C)c2oc(=O)ccc12
GROUP: inactive
//
COMPOUND: CC[C@@]1([C@@H]2O[C@@H]([C@H]3O[C@@](O)(CO)[C@H](C)C[C@H]3C)C[C@H]2C)CC[C@H]([C@]2(C)CC[C@]3(C[C@H](O)[C@@H](C)[C@@H]([C@@H](C)[C@@H](OC)[C@H](C)C(=O)O)O3)O2)O1
GROUP: active
//
COMPOUND: COc1ccc(-n2c(C)c([N+](=O)[O-])c3ccc(O)cc32)cc1
GROUP: inactive
//
COMPOUND: Cc1cnnc2ccccc12
GROUP: inactive
//
COMPOUND: COc1ccc2c(Oc3ccc(NC(=O)c4c(C)n(CC(C)(C)O)n(-c5ccccc5)c4=O)nc3)ccnc2c1
GROUP: inactive
//
COMPOUND: COc1cc(SC)ccc1C(=O)N1CCC(Cc2ccccc2)CC1
GROUP: inactive
//
COMPOUND: CN1C2CCC1CC(OC(c1ccccc1)c1ccccc1)C2 (stereo unspecified)
GROUP: inactive
//
COMPOUND: COc1cc(CNC(=O)CCCCCCC(C)C)ccc1O
GROUP: inactive
//
COMPOUND: CN(CC(=O)N(Cc1ccc(C2CCCCC2)cc1)c1ccc(C(=O)O)c(O)c1)S(=O)(=O)c1c(F)c(F)c(F)c(F)c1F
GROUP: inactive
//
COMPOUND: CCS(=O)(=O)c1cccc(-c2cc(C(=O)NC3CCN(C)CC3)c(C)c3[nH]c4ncc(C)cc4c23)c1
GROUP: active
